I'd appreciate it if you could supply growth values for the items below.
test system: OVCAR-8 ovarian; experiment: NCI-60 one-dose screen, 48 h (100 = growth as untreated, 0 = no growth, -100 = all killed); conditions: 10 µM unless noted
The panel holds about 83,000 compounds, 20% with a hit somewhere; the sample as a whole holds those more often.
Your answer should be a plain number; it is taken to be in %.

# return recorded growth for entry CC(C)(C)c1ccc(C(=O)Nc2sc3cc(O)ccc3c2C(N)=O)cc1
81.2

# return recorded growth for entry COc1ccc(C(=O)OC2C(OC3C(O)COC(O[C@H]4C[C@H]5[C@@H]6CC=C7C[C@@H](O)CC[C@]7(C)[C@H]6CC[C@]5(C)[C@H]4[C@H](C)C(=O)CCC(C)C)C3OC(=O)C(C)C)OCC(O)C2O)cc1 (stereo partly drawn)
36.3

# return recorded growth for entry COc1ccc2nc3cc(Cl)ccc3c(NC(=O)CSc3ccc(Cl)cc3)c2c1
-63.8

# return recorded growth for entry COc1ccc2c(c1)C1=NN(C(=O)CO)[C@H](c3ccc(OC(F)(F)F)cc3)[C@@H]1CC2
98

# return recorded growth for entry Clc1ccccc1CNc1c2ccccc2nc2ccccc12
23.8

# return recorded growth for entry CCc1c(C)c2ccc(O)c(-c3cc(-c4ccccc4)c(C#N)c(=O)[nH]3)c2oc1=O
100

# return recorded growth for entry O=C1C(Cl)=C(Nc2cccc3ccccc23)C(=O)c2ccccc21
71.5

# return recorded growth for entry N#Cc1ccc(-c2ccc(-c3cccs3)o2)cc1F
64.2

# return recorded growth for entry c1ccc(CCn2cccc2)nc1
102

# return recorded growth for entry NC(=O)N/N=C\c1ccc([N+](=O)[O-])o1
97.6

# return recorded growth for entry CC(C)(C)c1nn(-c2ccccc2)c2c1C(=O)CSC(c1ccc3c(c1)OCO3)N2 (stereo not drawn)
109

# return recorded growth for entry O=C(O/C(=C/c1ccccc1)C(F)(F)F)c1ccccc1
101

# return recorded growth for entry COc1cnc2c(c1)C(=O)c1c-2n(CCCN2CCNCC2)c(=O)c2cc(Cl)ccc12
-58.9

# return recorded growth for entry CCN(CC)CCCC(C)Nc1ccnc2ccc(Oc3ccccc3)cc12 (stereo not drawn)
76.7

# return recorded growth for entry COc1ccc(-c2cc(-c3cn(-c4cccc(Cl)c4)nc3-c3ccc(OC)cc3)[nH]c(=S)n2)cc1
84

# return recorded growth for entry CCCCCCCCCCCC1=NC(C)(C)CN1C(C)C
58.7

# return recorded growth for entry COC(=O)C(Br)(C(=O)OC)C(Br)C(Br)C(Br)c1ccccc1 (stereo not drawn)
73.1

# return recorded growth for entry C[C@H](NC(=O)c1snnc1C1CC1)c1c(F)cccc1Cl
104

# return recorded growth for entry CC(NC(=O)c1ccccc1)C(=O)Nc1ccccc1 (stereo not drawn)
103

# return recorded growth for entry O=C(/C=C/c1ccco1)c1ccccc1O
104

# return recorded growth for entry COc1ccc(N=C2CSc3nnc(-c4cc(F)c(Cl)cc4Cl)n3N2)cc1
6.26

# return recorded growth for entry O=C(CCl)Nc1cc(O)c2c(c1)C(=O)c1cccc(O)c1C2=O
-49.5

# return recorded growth for entry CS(=O)(=O)c1ccc(C(=O)N/N=C/c2ccccc2Cl)cc1
97.1

# return recorded growth for entry O=c1c2cc(Cl)ccc2oc2ccc(OCCCCCN3CCCCCC3)cc12
82.1

# return recorded growth for entry CN1C2CCC1/C(=C\c1ccc(F)cc1)C(=O)/C2=C/c1ccc(F)cc1
-19.8

# return recorded growth for entry NS(=O)(=O)c1ccc(CCn2c(SCC(=O)N/N=C/c3cc4ccccc4[nH]3)nc3ccccc3c2=O)cc1
40.5

# return recorded growth for entry COc1ccc(/C=N/NC(N)=S)c(OC)n1
97.7

# return recorded growth for entry O=C(CC(=O)c1ccccc1F)Nc1ccc([N+](=O)[O-])cc1
97.4

# return recorded growth for entry OC(CCCCCCCCC(O)CN1CCc2ccccc2C1)CN1CCc2ccccc2C1 (stereo not drawn)
104

# return recorded growth for entry CCCCCCCCN(CCCCCCCC)C(=O)CCl
89.4

# return recorded growth for entry c1cc2c(cc1-c1cnc3nonc3n1)OCO2
92.4

# return recorded growth for entry O=[N+]([O-])c1ccc(N/N=C/c2ccccc2O)nc1
24.3

# return recorded growth for entry Cc1ccc(OC2=C(C#N)C(=N)N3C(=NN2)Sc2c(C)ccc(C)c23)cc1
104

# return recorded growth for entry COc1cc(C2CC(c3ccc(C)cc3)=NN2C=O)ccc1Oc1ccnc2cc(Cl)ccc12 (stereo not drawn)
60.3

# return recorded growth for entry COc1ccc(C2=NNC(c3ccc(Oc4nc5c(c(=O)n(C)c(=O)n5C)n4C)c(OC)c3)C2)cc1 (stereo not drawn)
94.4

# return recorded growth for entry COc1ccc(C2c3cccn3-c3ccccc3N2C(C)=O)cc1 (stereo not drawn)
125

# return recorded growth for entry C=C1C(=O)O[C@H]2[C@H]1CC/C(COC(=O)NCc1[nH]nc3ccccc13)=C\CC[C@@]1(C)O[C@@H]21
35.3

# return recorded growth for entry CCN(CC)c1ccc(/C=N/NC(=O)C[N+](C)(C)C)cc1
111

# return recorded growth for entry O=C(/C=C/c1cn(-c2ccccc2)nc1-c1ccccc1)OCc1cn(-c2cccc([N+](=O)[O-])c2)nn1
82.6

# return recorded growth for entry O=C(c1ccccc1)C1OC1C(=O)c1ccccc1 (stereo not drawn)
25.4

# return recorded growth for entry CC(SC(C)C(=O)N/N=C/c1cccc(Cl)c1)C(=O)N/N=C\c1cccc(Cl)c1 (stereo not drawn)
68.1

# return recorded growth for entry Cc1ccncc1NC=O
104

# return recorded growth for entry CN(C)c1nc(-c2ccco2)n2nc(-c3ccc(Cl)cc3)cc2n1
50.8
